Experimental system: natriuretic peptide receptor on C3H10T1/2 cells
Experimental details: cell-based or functional assay
Some binders, each annotated with its measured % relative binding (cGMP, Biotrak EIA, peptide at 10^-6 M).
Your answer should be a plain number; it is taken to be in %.

Here is how some binders turned out for % relative binding (cGMP, Biotrak EIA, peptide at 10^-6 M).
Binder: CFGLKLDRIGSMSGMGC [CNP variant SEQ ID NO:62]
Observed: 51.3
--
Binder: CFGLKLDRIGSMSGAGC [CNP variant SEQ ID NO:63]
Observed: -1.11
--
Binder: CFGLMLDRIGSMSGLGC [CNP variant SEQ ID NO:44]
Observed: 5.42
--
Binder: CFGLKLDRTGSMSGLGC [CNP variant SEQ ID NO:53]
Observed: -1.95
--
Binder: CFGLKLERIGSMSGLGC [CNP variant SEQ ID NO:35]
Observed: 9.45
--
Binder: CFGLKLDRIGTMSGLGC [CNP variant SEQ ID NO:56]
Observed: 74.1

Read the next record carefully.
What value of % relative binding (cGMP, Biotrak EIA, peptide at 10^-6 M) has been recorded for this entry: CFGLKLDRIGSMSLLGC [CNP variant SEQ ID NO:59] 15.3
